As shown below, each of these molecules has a reported IC50 value.
# Tested on: Leishmania amazonensis promastigotes
# Protocol: In vitro leishmanicidal activity (resazurin viability) against promastigotes
# Format: cell-based
# Assay setup: Leishmania amazonensis, 24 h
Measurement name: IC50 (µM)

Molecule | Measurement name | Test value
Cc1ccc(C(C)C)cc1O [Carvacrol, 2-methyl-5-propan-2-ylphenol] | IC50 | 169
C=CCc1ccc(O)c(OC)c1 [Eugenol, 2-methoxy-4-prop-2-enylphenol] | IC50 | 505

----------
# Protocol: Cytotoxicity on L929 fibroblasts (MTT assay)
# Type: cell-based
# Assay setup: mouse; 50 µg mL^−1, 24 h, MTT; mean ± SD
Measurement name: viability at 24 h, 50 µg mL^−1 (%)

Compound | Unit annotation | Test value
C=C(C)[C@@H]1CC=C(C)C(=O)C1 [(−)-Carvone] | % | 65.1

----------
# Test system: Leishmania amazonensis promastigotes
# Protocol: In vitro leishmanicidal activity (resazurin viability) against promastigotes
# Type: cell-based
# Assay setup: Leishmania amazonensis, 24 h, promastigotes, 24 h incubation, resazurin method; mean ± SD of three independent experiments in triplicate; read-out: IC50 (µg mL^−1)
Measurement name: IC50

Compound | Measurement name | Test value
C=C(C)[C@@H]1CC=C(C)C(=O)C1 [(−)-Carvone] | IC50 | 195 µg/mL
C=C[C@](C)(O)CCC=C(C)C [(−)-Linalool, (3R)-3,7-dimethylocta-1,6-dien-3-ol] | IC50 | 276 µg/mL
Cc1ccc(C(C)C)c(O)c1 [Thymol, 5-methyl-2-propan-2-ylphenol] | IC50 | 26.8 µg/mL
Cc1ccc(C(C)C)cc1 [p-Cymene, 1-methyl-4-propan-2-ylbenzene] | IC50 | > 1000 µg/mL
CC1=CCC2C(C1)C2(C)C (centres unmarked) [Compound 3-Carene, 4,7,7-trimethylbicyclo[4.1.0]hept-3-ene] | IC50 | 72.5 µg/mL
CC(C)[C@@H]1CC[C@@H](C)C[C@H]1O [(−)-Menthol] | IC50 | 198 µg/mL
CC1(C)[C@@H]2CC[C@@]1(C)[C@H](O)C2 [Isoborneol] | IC50 | 190 µg/mL
C[C@@H]1[C@H](O)[C@@H](C)/C=C/C=C/C=C/C=C/C=C/C=C/C=C/[C@H](O[C@@H]2O[C@H](C)[C@@H](O)[C@H](N)[C@@H]2O)C[C@@H]2O[C@](O)(C[C@@H](O)C[C@@H](O)[C@H](O)CC[C@@H](O)C[C@@H](O)CC(=O)O[C@H]1C)C[C@H](O)[C@H]2C(=O)O [Amphotericin B, reference compound] | IC50 | 0.05 µg/mL

----------
# Protocol: Cytotoxicity on L929 fibroblasts (MTT assay)
# Type: cell-based
# Assay setup: mouse, L929 fibroblast cells; 50 µg mL^−1, 24 h, MTT; mean ± SD
# Description: Culture of the mouse fibroblast cell line (L929, ATCC CCL-1) were maintained in Dulbecco′s Modified Eagle Medium (DMEM, Sigma-Aldrich, St. Louis, MO, USA) supplemented with 10% heat-inactivated FBS and 1% streptomycin/penicillin (5000 units + 5 mg mL^−1, Sigma-Aldrich, St. Louis, MO, USA), and kept in a humid atmosphere at 37 °C and 5% CO2. […] Each experiment was conducted in quadruplicate and repeated at least three times. Data were expressed as mean ± standard deviation (±SD).
// returns F unless viability at 24 h, 50 µg mL^−1 is strictly below 80%, in which case T

Compound | Assigned category
C=C[C@](C)(O)CCC=C(C)C [(−)-Linalool, (3R)-3,7-dimethylocta-1,6-dien-3-ol] | T
Cc1ccc(C(C)C)cc1O | T
CC1=CCC2C(C1)C2(C)C (centres unmarked) [Compound 3-Carene, 4,7,7-trimethylbicyclo[4.1.0]hept-3-ene] | F
CC(C)[C@@H]1CC[C@@H](C)C[C@H]1O [(−)-Menthol] | F
Cc1ccc(C(C)C)c(O)c1 | T
Cc1ccc(C(C)C)cc1 | F
CC1(C)[C@@H]2CC[C@@]1(C)[C@H](O)C2 | T
